Tested on: Common Chickweed
protocol.details: post-emergence herbicide test
Type: in vivo
condition.details: post-emergence, 0.0357 lb/A; read-out: % plant inhibition
measured.quantity: inhibition at 40.0143 g/ha (%)
The reply should be a number in %, with the unit left off.

[
  {
    "molecular.string": "Cc1c(-c2cc(F)c([N+](=O)[O-])cc2F)nn(C)c1C(F)(F)F",
    "target.of.assay": "Common Chickweed",
    "reading": 0
  },
  {
    "molecular.string": "Cc1c(-c2cc(O)c(Cl)cc2F)nn(C)c1C(F)(F)F",
    "target.of.assay": "Common Chickweed",
    "reading": 15
  },
  {
    "molecular.string": "C#CCOc1cc(-c2nn(C)c(C(F)(F)F)c2C)c(F)cc1Cl",
    "target.of.assay": "Common Chickweed",
    "reading": 100
  },
  {
    "molecular.string": "Cc1c(-c2cc(OCC(=O)OC(C)C)c(Cl)cc2F)nn(C)c1C(F)(F)F",
    "target.of.assay": "Common Chickweed",
    "reading": 75
  },
  {
    "molecular.string": "COc1cc(-c2nn(C)c(C(F)(F)F)c2C)c(F)cc1[N+](=O)[O-]",
    "target.of.assay": "Common Chickweed",
    "reading": 15
  }
]

Now for another entry.
Data request: Item "COc1cc(-c2nn(C)c(C(F)(F)F)c2C)c(F)cc1Cl" has what recorded inhibition at 40.0143 g/ha?
Data returned: 40

* * *

System: Bedstraw Catchweed
protocol.details: pre-emergence herbicide test
Type: in vivo
condition.details: Galium aparine, pre-emergence, 0.893 lb/A; read-out: % plant inhibition
Recorded inhibition at 1000.92 g/ha values for a group of molecules are listed next.
Output spec: scalar in %, unitless text.

Here are 3 molecules together with their reported answers.
[
  {
    "molecular.string": "Cc1c(-c2cc(F)ccc2F)nn(C)c1C(F)(F)F",
    "reading": 0
  },
  {
    "molecular.string": "Cc1c(-c2cc(F)c([N+](=O)[O-])cc2F)nn(C)c1C(F)(F)F",
    "reading": 100
  },
  {
    "molecular.string": "COc1cc(-c2nn(C)c(C(F)(F)F)c2C)c(F)cc1[N+](=O)[O-]",
    "reading": 100
  }
]

Data request: Form field - read-out: inhibition at 1000.92 g/ha; system: Bedstraw Catchweed; submitted item: "Cn1nc(-c2cc(F)ccc2F)c(C=O)c1C(F)(F)F"
Data returned: 0

* * *

Tested on: Soybean
protocol.details: post-emergence herbicide test
Assay type: in vivo
condition.details: Glycine max, post-emergence, 0.25 lb/A; read-out: % plant inhibition
Classify by measured inhibition at 280.212 g/ha: 1 (yes) if it is equal to or exceeds 40%, 0 (no) if it is smaller.

Here's what some known entries look like.
[
  {
    "molecule": "Cc1c(-c2cc(C(=O)O)c(Cl)cc2F)nn(C)c1C(F)(F)F",
    "qualitative.label": "0 (no)"
  },
  {
    "molecule": "CSCc1cc(-c2nn(C)c(C(F)(F)F)c2C)c(F)cc1Cl",
    "qualitative.label": "1 (yes)"
  },
  {
    "molecule": "CCOC(=O)C(C)OC(=O)c1cc(-c2nn(C)c(C(F)(F)F)c2C)c(F)cc1Cl (stereo not drawn)",
    "qualitative.label": "0 (no)"
  },
  {
    "molecule": "COC(=O)CSCc1cc(-c2nn(C)c(C(F)(F)F)c2C)c(F)cc1Cl",
    "qualitative.label": "0 (no)"
  }
]

Data request: # bool: inhibition at 280.212 g/ha of "Cc1c(-c2cc(C(=O)OCC(=O)c3ccccc3)c(Cl)cc2F)nn(C)c1C(F)(F)F" >= 40%
Data returned: 0 (no)

Data request: // inclusive: inhibition at 280.212 g/ha at least 40%? input: "Cc1c(-c2cc(CBr)c(Cl)cc2F)nn(C)c1C(F)(F)F"
Data returned: 0 (no)

src = patent US5672715A
